target.or.test.system: tetanus neurotoxin (TeNT), authentic tetanus holotoxin (Clostridium tetani, UniProt P04958 2-1315)
Sequence (P04958 2-457 limits assumed, chain 1 of 2): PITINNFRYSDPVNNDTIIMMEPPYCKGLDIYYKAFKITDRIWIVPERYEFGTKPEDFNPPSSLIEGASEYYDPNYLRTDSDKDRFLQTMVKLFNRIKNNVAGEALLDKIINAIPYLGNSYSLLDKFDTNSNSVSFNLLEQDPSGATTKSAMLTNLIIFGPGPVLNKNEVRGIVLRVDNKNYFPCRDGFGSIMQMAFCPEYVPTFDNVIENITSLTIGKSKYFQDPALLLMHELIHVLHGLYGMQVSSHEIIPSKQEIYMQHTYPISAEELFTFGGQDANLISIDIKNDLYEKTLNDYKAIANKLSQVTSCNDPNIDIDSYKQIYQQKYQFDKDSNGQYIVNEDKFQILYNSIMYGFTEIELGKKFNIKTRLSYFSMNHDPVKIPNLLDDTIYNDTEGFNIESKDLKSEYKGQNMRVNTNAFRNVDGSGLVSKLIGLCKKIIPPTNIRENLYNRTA
Sequence (P04958 458-1315 limits assumed, chain 2 of 2): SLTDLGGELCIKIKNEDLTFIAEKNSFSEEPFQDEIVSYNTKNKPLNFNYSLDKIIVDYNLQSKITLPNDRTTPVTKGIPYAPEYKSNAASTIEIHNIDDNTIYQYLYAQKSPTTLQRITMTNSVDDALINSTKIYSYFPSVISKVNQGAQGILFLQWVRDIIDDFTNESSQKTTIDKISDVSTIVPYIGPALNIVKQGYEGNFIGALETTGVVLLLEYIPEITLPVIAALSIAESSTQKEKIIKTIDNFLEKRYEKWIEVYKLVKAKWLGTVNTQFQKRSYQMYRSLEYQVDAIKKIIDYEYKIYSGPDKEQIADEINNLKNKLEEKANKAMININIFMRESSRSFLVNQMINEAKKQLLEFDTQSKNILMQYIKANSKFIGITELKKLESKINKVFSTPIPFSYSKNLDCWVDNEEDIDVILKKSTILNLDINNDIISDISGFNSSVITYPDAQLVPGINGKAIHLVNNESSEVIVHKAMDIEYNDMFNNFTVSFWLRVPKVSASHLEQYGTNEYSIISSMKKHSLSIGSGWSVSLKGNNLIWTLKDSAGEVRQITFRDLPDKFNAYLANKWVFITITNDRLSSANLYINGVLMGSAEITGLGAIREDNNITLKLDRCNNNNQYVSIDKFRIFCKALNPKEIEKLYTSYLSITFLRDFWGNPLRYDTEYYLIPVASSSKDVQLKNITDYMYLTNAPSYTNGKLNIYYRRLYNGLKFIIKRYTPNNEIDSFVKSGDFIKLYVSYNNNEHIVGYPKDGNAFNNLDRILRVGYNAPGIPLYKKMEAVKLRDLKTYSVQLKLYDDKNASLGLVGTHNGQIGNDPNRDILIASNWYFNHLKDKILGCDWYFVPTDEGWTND
protocol.notes: bridging ELISA: coated TeNT, SDA, biotinylated TeNT, StrepPO (bivalent binding)
Examples of binders with documented Effective SDA Concentration at A450 0.3 follow.

>  <binder>
SVG06L (VHH) VHH: QVQLQESGGALVQPGGSLRLSCAASGFPFSAYDMTWVRQAPGQGLEWVSTIHKSGGITTYADSVKGRFTISRDNAKNTLYLQMNNLESEDTAVYYCAKALRAHNSDYVGRNALGSWGEGTLVTVSS

>  <Effective SDA Concentration at A450 0.3>
> 1000 ng/mL

$$$$
>  <binder>
SVT15-3FW4M-GS2-SVG06M4-H6 (bispecific antibody) QVQLQESGGGLVQTGGSLRLSCRASGRAFANYHFGWFRQAPGKDREFVASISWKGGSTYYANFALGRFTSSVDRAESSVYLQMSGLTPEDTATYYCAAHDGGDWNYHTGMDYWGQGTQVTVSSGGGGSGGGSEVQLVESGGALVQPGGSLRLSCAASGFPFSAYDMTWVRQAPGQGLEWVSTIHKSGGITTYADSVKGRFTISRDNAKNTLYLQMNNLESEDTAVYYCAKALRAHNSDYVGRNALGSWGQGTQVTVSSHHHHHH

>  <Effective SDA Concentration at A450 0.3>
> 1000 ng/mL

$$$$
>  <binder>
SVT06-GS2-SVA12M2-H6 (bispecific antibody) QVQLQESGGGSVQAGGSLRLSCTASELSYDDYTIAWFRRAAGEGRVEDGEGVASITKSYDRAYDNKINYGHSVKGRFTISRDNAKNTVYLQMTDLLPSDTAVYYCALDITPPGGVGASLTEGFLFDYWGQGTQVTVSSGGGGSGGGSEVQLVESGGGLVQAGGSLRLSCAASGRTFSYYPMAWFRQAPGQEREFVAAIIGADTTYYADSLKGRFTISRDNAKNMVYLQMNSLKPEDTAVYYCAARNTYWSDVYYREGQYTNWGQGTQVTVSSHHHHHH

>  <Effective SDA Concentration at A450 0.3>
19 ng/mL

$$$$
>  <binder>
SVT15L-3FW4M (VHH) VHH: QVQLQESGGGLVQTGGSLRLSCRASGRAFANYHFGWFRQAPGKDREFVASISWKGGSTYYANFALGRFTSSVDRAESSVYLQMSGLTPEDTATYYCAAHDGGDWNYHTGMDYWGQGTQVTVSS

>  <Effective SDA Concentration at A450 0.3>
> 1000 ng/mL

$$$$
>  <binder>
SVT15-3FW4M-GS2-SVA12M2-H6 (bispecific antibody) QVQLQESGGGLVQTGGSLRLSCRASGRAFANYHFGWFRQAPGKDREFVASISWKGGSTYYANFALGRFTSSVDRAESSVYLQMSGLTPEDTATYYCAAHDGGDWNYHTGMDYWGQGTQVTVSSGGGGSGGGSEVQLVESGGGLVQAGGSLRLSCAASGRTFSYYPMAWFRQAPGQEREFVAAIIGADTTYYADSLKGRFTISRDNAKNMVYLQMNSLKPEDTAVYYCAARNTYWSDVYYREGQYTNWGQGTQVTVSSHHHHHH

>  <Effective SDA Concentration at A450 0.3>
33 ng/mL

$$$$
>  <binder>
SVT02-GS2-SVG13M4-H6 (bispecific antibody) QVQLQQSGGGSVQAGGSLRLSCVGPQRTFSTYGMGWFRQAPGKEREFVAGINYKGDTTYYADSVKGRFTISRDNAKNTLYLQMDSLKPEDRAVYQCARKGGLGGDYRDAGQYRYWGQGTQVTVSSGGGGSGGGSEVQLVESGGGLVQPGGSLRLSCEASGFTFDDYGMSWVRQAPGKGLEWVSSLTPNGGSTYYADSVKGRFTISRDNAKNTLYLQMNSLKPEDTALYYCAKNSYYGAMDYWGQGTQVTVSSHHHHHH

>  <Effective SDA Concentration at A450 0.3>
> 1000 ng/mL

$$$$

These data points were gathered from patent US20240376185A1.
